# System: EKO-35 araC::acrBD408A
Readout kind: log10 MIC (log10 of the value in µg/mL)

| Compound | log10 MIC |
| --- | --- |
| Cc1onc(-c2ccccc2)c1C(=O)N[C@@H]1C(=O)N2[C@@H]1SC(C)(C)[C@@H]2C(=O)O [oxacillin] | 0.10 |
| CC[C@H]1OC(=O)[C@H](C)[C@@H](O[C@H]2C[C@@](C)(OC)[C@@H](O)[C@H](C)O2)[C@H](C)[C@@H](O[C@@H]2O[C@H](C)C[C@H](N(C)C)[C@H]2O)[C@](C)(O)C[C@@H](C)CN(C)[C@H](C)[C@@H](O)[C@]1(C)O [azithromycin] | -0.11 |
| CN(C)c1ccc(O)c2c1C[C@H]1C[C@H]3[C@H](N(C)C)C(O)=C(C(N)=O)C(=O)[C@@]3(O)C(O)=C1C2=O [minocycline] | -1.31 |
| CN[C@@H]1[C@H](O)[C@H](NC)[C@H]2O[C@@]3(O)C(=O)C[C@@H](C)O[C@H]3O[C@@H]2[C@H]1O [Spectinomycin] | 1.40 |
| CC(=O)NC[C@H]1CN(c2ccc(N3CCOCC3)c(F)c2)C(=O)O1 [linezolid] | 0.89 |
| NC[C@H]1O[C@H](O[C@H]2[C@H](O)[C@@H](O[C@H]3O[C@H](CO)[C@@H](O)[C@H](N)[C@H]3O)[C@H](N)C[C@@H]2N)[C@H](O)[C@@H](O)[C@@H]1O [kanamycin] | 0.19 |
| CN(C)[C@@H]1C(O)=C(C(N)=O)C(=O)[C@@]2(O)C(O)=C3C(=O)c4c(O)cccc4[C@@](C)(O)[C@H]3C[C@@H]12 [tetracycline] | -0.71 |
| COc1cccc2c1C(=O)c1c(O)c3c(c(O)c1C2=O)C[C@@](O)(C(C)=O)C[C@@H]3O[C@H]1C[C@H](N)[C@H](O)[C@H](C)O1 [daunorubicin] | 0.49 |
| [H]/N=C(\N/C(=N/[H])NCCCCCCNC(=N)NC(=N)Nc1ccc(Cl)cc1)Nc1ccc(Cl)cc1 [Chlorhexidine] | -0.41 |
| O=C(N[C@H](CO)[C@H](O)c1ccc([N+](=O)[O-])cc1)C(Cl)Cl [chloramphenicol] | -0.11 |
| CN[C@H](CC(C)C)C(=O)N[C@H]1C(=O)N[C@@H](CC(N)=O)C(=O)N[C@H]2C(=O)N[C@H]3C(=O)N[C@H](C(=O)N[C@H](C(=O)O)c4cc(O)cc(O)c4-c4cc3ccc4O)[C@H](O)c3ccc(c(Cl)c3)Oc3cc2cc(c3O[C@@H]2O[C@H](CO)[C@@H](O)[C@H](O)[C@H]2O[C@H]2C[C@](C)(N)[C@H](O)[C@H](C)O2)Oc2ccc(cc2Cl)[C@H]1O [vancomycin] | 2.30 |

----------
# Test system: EKO-35 araC::mexCD (MexCD from P. aeruginosa)
# Assay method text: MIC susceptibility profiling, efflux platform
# Format: cell-based, Escherichia coli
# Measurement conditions: Table 13B; non-porinated; technical duplicate; read-out: Minimum Inhibitory Concentration, EKO-35 araC::mexCD
Below, each of the molecules is paired with its reported log10 MIC value.
Readout kind: log10 MIC (log10 of the value in µg/mL)

| Smiles repr | log10 MIC |
| --- | --- |
| COc1ccc(C[C@H](N)C(=O)N[C@H]2[C@@H](O)[C@H](n3cnc4c(N(C)C)ncnc43)O[C@@H]2CO)cc1 | 0.80 |
| O=C(O)c1cn(C2CC2)c2cc(N3CCNCC3)c(F)cc2c1=O | -2.00 |
| CCn1cc(C(=O)O)c(=O)c2cc(F)c(N3CCNCC3)cc21 | -1.41 |
| CC(=O)NC[C@H]1CN(c2ccc(N3CCOCC3)c(F)c2)C(=O)O1 | 1.19 |
| CC(=O)O[C@H]1C[C@@]2(C)[C@@H](C[C@@H](O)[C@H]3[C@@]4(C)CC[C@@H](O)[C@@H](C)[C@@H]4CC[C@@]32C)/C1=C(\CCC=C(C)C)C(=O)O | 1.10 |
| CC1(C)S[C@@H]2[C@H](NC(=O)[C@H](N)c3ccccc3)C(=O)N2[C@H]1C(=O)O | 1.40 |
| CO[C@@H]1[C@@H](OC(N)=O)[C@@H](O)[C@H](Oc2ccc3c(O)c(NC(=O)c4ccc(O)c(CC=C(C)C)c4)c(=O)oc3c2C)OC1(C)C | 1.40 |
